Test system: HIV-1NL4–3
Assay: antiviral assay in MT-4 human T-lymphocytes exposed to HIV-1NL4–3
Type: cell-based
Details: Human immunodeficiency virus 1, MT4, in Homo sapiens, read-out: antiviral IC50
property: IC50 (nM)
Output spec: scalar in nM, unitless text.

# input Fill in the blank: the reported IC50 of C=C(C)CN1C(=O)O[C@@H]2C[C@H](OC(=O)N[C@@H](Cc3ccccc3)[C@H](O)CN(CC(C)C)S(=O)(=O)c3ccc(OC)cc3)C[C@@H]21 [Inhibitor 4k] is ____.
# output 31
